Tgt: Proteasome Macropain subunit MB1 (Homo sapiens) (UniProt P28074)
Sequence (whole entry): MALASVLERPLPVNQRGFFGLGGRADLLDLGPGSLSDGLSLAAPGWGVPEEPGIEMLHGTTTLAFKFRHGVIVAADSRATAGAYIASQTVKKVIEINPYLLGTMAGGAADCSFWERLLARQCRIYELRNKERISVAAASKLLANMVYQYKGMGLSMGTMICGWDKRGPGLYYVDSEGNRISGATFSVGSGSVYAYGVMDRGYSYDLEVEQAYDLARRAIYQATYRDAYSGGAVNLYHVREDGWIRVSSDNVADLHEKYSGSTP
Experiment summary: Inhibition of chymotrypsin-like activity of 20S proteasome in human HL60 cells using Suc-LLVYaminoluciferin as substrate at 2 uM after 2 hrs by […] analysis
Assay type: cell-based
Property label: inhibition (%)

These recorded examples may help you get a feel for the data.
# Structure notation, Measurement
measured = [
    ("COc1ccc(OC)c(CNC(=O)N[C@@H](Cc2ccccc2)C(=O)N[C@@H](CC(C)C)B(O)O)c1", 96.7),
    ("COc1ccc(CNC(=O)[C@H](Cc2ccccc2)NC(=O)N[C@@H](CC(C)C)B(O)O)cc1", 86.8),
    ("CC(C)C[C@H](NC(=O)[C@H](Cc1ccccc1)NC(=O)NCc1cccc(Cl)c1Cl)B(O)O", 96.5),
    ("CC(C)C[C@H](NC(=O)[C@H](Cc1ccccc1)NC(=O)Nc1cnccn1)B(O)O", 87.3),
    ("COc1ccc(NC(=O)[C@H](Cc2ccccc2)NC(=O)N[C@@H](CC(C)C)B(O)O)cc1", 59.7),
    ("CC(C)C[C@H](NC(=O)CNC(=O)Nc1cc(Cl)ccc1Cl)B(O)O", 89.7),
    ("CC(C)C[C@H](NC(=O)[C@H](Cc1ccccc1)NC(=O)[C@H](Cc1ccccc1)NC(=O)Nc1cccc(OCc2ccccc2)c1)B(O)O", 91),
]

P: CC(C)C[C@H](NC(=O)CNC(=O)Nc1cccc(OCc2ccccc2)c1)B(O)O
Q: CC(C)C[C@H](NC(=O)N[C@@H](Cc1ccccc1)C(=O)Nc1cnccn1)B(O)O
Field: lower recorded inhibition (choose P or Q ) Give the chosen item's label as your response.
Q
